Origin of the recorded values: patent US10125123B2

pEC50 for assorted compounds
tested_target: IRE1α (Homo sapiens, UniProt O75460)
Sequence (O75460 19-977): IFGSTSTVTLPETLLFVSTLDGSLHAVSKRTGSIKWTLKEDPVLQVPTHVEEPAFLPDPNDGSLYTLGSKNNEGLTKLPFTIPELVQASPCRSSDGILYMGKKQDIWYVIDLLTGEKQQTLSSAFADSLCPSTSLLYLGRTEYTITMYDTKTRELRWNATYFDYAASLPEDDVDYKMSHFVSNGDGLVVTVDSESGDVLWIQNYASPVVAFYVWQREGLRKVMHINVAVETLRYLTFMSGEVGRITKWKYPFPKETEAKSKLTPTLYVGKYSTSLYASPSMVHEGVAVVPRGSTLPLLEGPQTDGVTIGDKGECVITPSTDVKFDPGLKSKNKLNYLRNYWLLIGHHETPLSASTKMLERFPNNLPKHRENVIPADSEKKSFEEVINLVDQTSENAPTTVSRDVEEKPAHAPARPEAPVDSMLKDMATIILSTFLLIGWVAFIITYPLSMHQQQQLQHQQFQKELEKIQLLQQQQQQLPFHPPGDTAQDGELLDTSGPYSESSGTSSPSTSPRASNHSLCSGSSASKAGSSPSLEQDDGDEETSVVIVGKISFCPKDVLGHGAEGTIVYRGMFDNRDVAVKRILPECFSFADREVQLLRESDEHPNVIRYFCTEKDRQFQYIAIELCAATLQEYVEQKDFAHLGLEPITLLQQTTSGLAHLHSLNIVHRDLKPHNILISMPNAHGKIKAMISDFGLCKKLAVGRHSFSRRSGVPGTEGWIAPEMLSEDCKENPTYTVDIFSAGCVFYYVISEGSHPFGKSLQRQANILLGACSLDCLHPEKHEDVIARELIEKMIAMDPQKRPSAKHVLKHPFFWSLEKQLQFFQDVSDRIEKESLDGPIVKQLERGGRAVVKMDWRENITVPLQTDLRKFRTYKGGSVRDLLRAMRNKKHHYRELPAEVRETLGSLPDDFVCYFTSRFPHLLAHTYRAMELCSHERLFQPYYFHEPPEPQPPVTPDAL
method_summary: In vitro FRET assay (XBP1 RNA probe cleavage by IRE1α)
test_context: biochemical FRET assay, 2 nM IRE1α
pEC50: −log10 of the molar value.

Kindly state the measured pEC50 obtained for Cn1nc(NC(=O)Nc2ccc(CN3CCN(CCO)CC3)c(C(F)(F)F)c2)cc1-c1ccc2ccncc2c1 with IRE1α (Homo sapiens, UniProt O75460).
≥ 5.30

Kindly state the measured pEC50 obtained for CN1CCN(Cc2ccc(NC(=O)Cc3cc(-c4ccc5ccncc5c4)n(C)n3)cc2C(F)(F)F)CC1 with IRE1α (Homo sapiens, UniProt O75460).
4.30 to 5.30

Kindly state the measured pEC50 obtained for CN1CCN(Cc2ccc(NC(=O)Nc3cc(-c4ccc5ccncc5c4)n(C)n3)c(-c3cnn(C)c3)c2)CC1 with IRE1α (Homo sapiens, UniProt O75460).
4.00 to 4.30

Kindly state the measured pEC50 obtained for Cn1nc(NC(=O)Nc2ccc(CN3CCOCC3)c(C(F)(F)F)c2)cc1-c1ccc2ccncc2c1 with IRE1α (Homo sapiens, UniProt O75460).
< 4.00

Kindly state the measured pEC50 obtained for CN1CCN(Cc2ccc(CC(=O)Nc3cc(-c4ccc5cc(N)ncc5c4)n(C)n3)cc2C(F)(F)F)CC1 with IRE1α (Homo sapiens, UniProt O75460).
4.30 to 5.30

Kindly state the measured pEC50 obtained for O=C(/C=C\c1ccccc1)Nc1ccc2oc(-c3cccnc3)nc2c1 with IRE1α (Homo sapiens, UniProt O75460).
4.30 to 5.30

Kindly state the measured pEC50 obtained for Cn1nc(NC(=O)c2cccc(-n3cccn3)c2)cc1-c1ccc2ccncc2c1 with IRE1α (Homo sapiens, UniProt O75460).
< 4.00

Could you now look at the following compound, please?
Kindly state the measured pEC50 obtained for Cn1nc(NC(=O)Nc2ccc(CN3CCCCCC3)c(C(F)(F)F)c2)cc1-c1ccc2ccncc2c1 with IRE1α (Homo sapiens, UniProt O75460).
< 4.00

====

EC50 for assorted compounds
tested_target: IRE1α (Homo sapiens)
method_summary: In vitro FRET assay (XBP1 RNA probe cleavage by IRE1α)
test_context: biochemical FRET assay, 2 nM IRE1α

// below: answered compounds
Need EC50, item CC(C)N1CCN(Cc2ccc(NC(=O)Nc3cc(-c4ccc5ccncc5c4)n(C)n3)cc2C(F)(F)F)CC1 [Compound 37]
≤ 5 µM

Need EC50, item CN1CCN(Cc2ccc(NC(=O)Nc3cc(-c4ccnc5c4ccn5C)n(C)n3)cc2C(F)(F)F)CC1 [Compound 12]
5 to 50 µM

Need EC50, item CN1CCN(Cc2ccc(NC(=O)Nc3cc(-c4ccc5ccncc5c4)n(C)n3)cc2C(F)(F)F)CC1 [Compound 24]
≤ 5 µM

Could you now look at the following compound, please?
Need EC50, item CN1CCN(Cc2ccc(NC(=O)Nc3cc(-c4ccc5ccncc5c4)n(C)n3)cc2)CC1 [Compound 47]
> 100 µM

====

tested_target: IRE1α (Homo sapiens, UniProt O75460)
method_summary: In vitro FRET assay (XBP1 RNA probe cleavage by IRE1α)
test_context: biochemical FRET assay, 2 nM IRE1α
measured_property: EC50

// below: answered molecules
Need EC50, item CN1CCN(Cc2ccc(NC(=O)Nc3nn(C)c4cc(-c5cnc(N)nc5)ccc34)cc2C(F)(F)F)CC1 [Compound 9]
≤ 5 µM

Need EC50, item CN1CCN(Cc2ccc(Nc3c(Nc4cc(-c5ccc6ccncc6c5)n(C)n4)c(=O)c3=O)cc2C(F)(F)F)CC1 [Compound 73]
≤ 5 µM

Need EC50, item Cn1nc(NS(=O)(=O)c2ccccc2)cc1-c1ccc2cc(N)ncc2c1 [Compound 66]
> 100 µM

Need EC50, item CN1CCN(Cc2ccc(NC(=O)Nc3cc(-c4ccc5ncnc(N)c5c4)n(C)n3)cc2C(F)(F)F)CC1 [Compound 28]
≤ 5 µM

Need EC50, item Cc1cc2oc(-c3cnn4ccccc34)nc2cc1NC(=O)Nc1ccc(CN2CCN(C)CC2)c(C(F)(F)F)c1 [Compound 17]
> 100 µM

More entries:
Need EC50, item CN1CCN(Cc2ccc(NC(=O)Nc3cc(-c4ccc5cnoc5c4)n(C)n3)cc2C(F)(F)F)CC1 [Compound 2]
5 to 50 µM

Need EC50, item CN1CCN(Cc2ccc(NC(=O)Nc3cc(-c4ccc5nc(C(F)F)[nH]c(=O)c5c4)n(C)n3)cc2C(F)(F)F)CC1 [Compound 8]
≤ 5 µM
